biological target: butyrylcholinesterase (BChE) from equine serum (Equus caballus, UniProt P81908); construct: BChE equine serum Lyophilized (CAS 9001-08-5 Sigma-Aldrich GmbH USA); purchased Sigma-Aldrich CAS 9001-08-5 (catalogue number not given); host or cells: equine serum; experiment: Butyrylcholinesterase inhibition assay (Ellman's spectrophotometric assay); type: biochemical; details: read-out: Percent AChEI (mean ± SEM) (Table 3, butyrylcholinesterase inhibition)
Sequence (P81908 whole entry): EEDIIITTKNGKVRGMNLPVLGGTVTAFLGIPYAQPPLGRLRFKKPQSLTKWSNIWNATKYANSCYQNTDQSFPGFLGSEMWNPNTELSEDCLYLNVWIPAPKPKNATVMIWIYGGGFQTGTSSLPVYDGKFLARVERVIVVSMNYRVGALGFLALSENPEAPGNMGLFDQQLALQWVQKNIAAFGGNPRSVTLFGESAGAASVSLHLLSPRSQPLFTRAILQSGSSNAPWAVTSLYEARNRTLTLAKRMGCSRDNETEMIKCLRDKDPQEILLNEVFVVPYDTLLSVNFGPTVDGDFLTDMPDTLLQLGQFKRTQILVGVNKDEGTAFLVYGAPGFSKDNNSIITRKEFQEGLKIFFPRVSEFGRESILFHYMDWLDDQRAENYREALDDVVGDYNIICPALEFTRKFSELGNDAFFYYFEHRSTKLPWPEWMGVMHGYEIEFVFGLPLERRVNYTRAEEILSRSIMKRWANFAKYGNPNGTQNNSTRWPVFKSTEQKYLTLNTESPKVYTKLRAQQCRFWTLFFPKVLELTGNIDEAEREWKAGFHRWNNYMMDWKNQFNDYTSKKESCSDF
VALUE TYPE: inhibition at 500 µg/mL (%)
Enter your answer as a number in %; do not include the unit.

The following compounds have reported results that may help.
| COMPOUND | VALUE TYPE | DATA VALUE |
| --- | --- | --- |
| COc1ccc2c3c1O[C@H]1C[C@@H](O)C=C[C@@]31CCN(C)C2 [Galanthamine, reference compound] | inhibition at 500 µg/mL | 85.5 |
| CCOC(=O)C1(C2CC(=O)N(Cc3ccccc3)C2=O)CCCC1=O (centres unmarked) | inhibition at 500 µg/mL | 86.8 |
| CCOC(=O)C1(C2CC(=O)N(Cc3ccccc3)C2=O)CCCCC1=O (centres unmarked) | inhibition at 500 µg/mL | 88.5 |
| CCOC(=O)C1(C2CC(=O)N(c3ccccc3)C2=O)CCCC1=O (centres unmarked) | inhibition at 500 µg/mL | 82.5 |

Qu. Quick one: inhibition at 500 µg/mL of CCOC(=O)C1(C2CC(=O)N(c3ccccc3)C2=O)CCCCC1=O (centres unmarked) ?
Ans. 89

---

Listing of entries alongside the reported inhibition at 1000 µg/mL.
target: butyrylcholinesterase (BChE) from equine serum (Equus caballus); construct: BChE equine serum Lyophilized (CAS 9001-08-5 Sigma-Aldrich GmbH USA); purchased Sigma-Aldrich CAS 9001-08-5 (catalogue number not given); host or cells: equine serum; assay: Butyrylcholinesterase inhibition assay (Ellman's spectrophotometric assay); type: biochemical; conditions: read-out: Percent AChEI (mean ± SEM) (Table 3, butyrylcholinesterase inhibition)
Numeric only. Scale: %

These recorded examples may help you get a feel for the data.
| COMPOUND | inhibition at 1000 µg/mL, % |
| --- | --- |
| CCOC(=O)C1(C2CC(=O)N(Cc3ccccc3)C2=O)CCCCC1=O (centres unmarked) | 98.5 |
| CCOC(=O)C1(C2CC(=O)N(c3ccccc3)C2=O)CCCC1=O (centres unmarked) | 90.2 |
| CCOC(=O)C1(C2CC(=O)N(Cc3ccccc3)C2=O)CCCC1=O (centres unmarked) | 90 |

Qu. Dear colleague, I am looking for the recorded inhibition at 1000 µg/mL of the following compound: COc1ccc2c3c1O[C@H]1C[C@@H](O)C=C[C@@]31CCN(C)C2 [Galanthamine, reference compound]
Ans. 94.5

Qu. Item under review: CCOC(=O)C1(C2CC(=O)N(c3ccccc3)C2=O)CCCCC1=O (centres unmarked) . Reported inhibition at 1000 µg/mL?
Ans. 89.2

---

Assay: ABTS free radicals scavenging assay
Conditions: conc. 1000 μg/mL; n = 3
Method: ABTS (2, 2-azinobis [3-ethylbenzthiazoline]-6-sulfonic acid) free radicals were also used to confirm the antioxidant activity of the synthesized compounds. The activity is based on the capacity of antioxidants to scavenge ABTS^+ radical cation causing a reduction in absorbance at 734 nm. […] At the time of activity, ABTS^+ radical cation solution was diluted with Phosphate buffer (0.01 M) pH 7.4 to adjust an absorbance value of 0.70 at 734 nm. […]
Everything with Percent inhibition (mean ± SEM), ABTS free radicals scavenging lower than 80% is NO; everything else, including exactly 80%, is YES.

Answered cases to consult:
| COMPOUND | LABEL VALUE |
| --- | --- |
| CCOC(=O)C1(C2CC(=O)N(Cc3ccccc3)C2=O)CCCCC1=O (centres unmarked) [Compound 4] | NO |
| O=C1O[C@H]([C@@H](O)CO)C(O)=C1O [Ascorbic acid, reference compound] | YES |
| CCOC(=O)C1(C2CC(=O)N(c3ccccc3)C2=O)CCCC1=O (centres unmarked) [Compound 1] | YES |

Shift focus to the following entry.
Qu. Quick check: does CCOC(=O)C1(C2CC(=O)N(Cc3ccccc3)C2=O)CCCC1=O (centres unmarked) [Compound 2] have Percent inhibition (mean ± SEM), ABTS free radicals scavenging greater than or equal to 80%?
Ans. YES
